settings: in n-heptanol, 303.15 K
property label: solubility (mole fraction)
Give only the figure.

Inquiry: Given O=c1nc[nH]c2[nH]ncc12 , respond with its solubility (mole fraction).
Reply text: 0.000276

----------
settings: in DMF, 313.15 K
property label: solubility (mole fraction)

Inquiry: Given O=c1nc[nH]c2[nH]ncc12 , respond with its solubility (mole fraction).
Reply text: 0.00683

----------
settings: in water, 288.15 K
property label: solubility (mole fraction)
Give only the figure.

Inquiry: Given O=c1nc[nH]c2[nH]ncc12 , respond with its solubility (mole fraction).
Reply text: 1.57e-05

----------
settings: in isopropanol, 308.15 K
property label: solubility (mole fraction)

Inquiry: Given O=c1nc[nH]c2[nH]ncc12 , respond with its solubility (mole fraction).
Reply text: 0.000138

----------
settings: in n-propanol, 278.15 K
property label: solubility (mole fraction)

Inquiry: Given O=c1nc[nH]c2[nH]ncc12 , respond with its solubility (mole fraction).
Reply text: 4.85e-05

----------
settings: in acetone, 278.15 K
property label: solubility (mole fraction)
Give only the figure.

Inquiry: Given O=c1nc[nH]c2[nH]ncc12 , respond with its solubility (mole fraction).
Reply text: 0.000653

----------
settings: in n-propanol, 308.15 K
property label: solubility (mole fraction)
Give only the figure.

Inquiry: Given O=c1nc[nH]c2[nH]ncc12 , respond with its solubility (mole fraction).
Reply text: 0.000164

----------
settings: in n-propanol, 293.15 K
property label: solubility (mole fraction)
Give only the figure.

Inquiry: Given O=c1nc[nH]c2[nH]ncc12 , respond with its solubility (mole fraction).
Reply text: 9.52e-05

----------
settings: in acetone, 293.15 K
property label: solubility (mole fraction)
Give only the figure.

Inquiry: Given O=c1nc[nH]c2[nH]ncc12 , respond with its solubility (mole fraction).
Reply text: 0.00116

----------
settings: in cyclohexane, 328.15 K
property label: solubility (mole fraction)
Give only the figure.

Inquiry: Given O=c1nc[nH]c2[nH]ncc12 , respond with its solubility (mole fraction).
Reply text: 3.77e-06

----------
settings: in NMP, 288.15 K
property label: solubility (mole fraction)

Inquiry: Given O=c1nc[nH]c2[nH]ncc12 , respond with its solubility (mole fraction).
Reply text: 0.02

----------
settings: in acetonitrile, 278.15 K
property label: solubility (mole fraction)
Give only the figure.

Inquiry: Given O=c1nc[nH]c2[nH]ncc12 , respond with its solubility (mole fraction).
Reply text: 9.6e-05

----------
settings: in NMP, 313.15 K
property label: solubility (mole fraction)
Give only the figure.

Inquiry: Given O=c1nc[nH]c2[nH]ncc12 , respond with its solubility (mole fraction).
Reply text: 0.035

----------
settings: in 2-butanone, 298.15 K
property label: solubility (mole fraction)
Give only the figure.

Inquiry: Given O=c1nc[nH]c2[nH]ncc12 , respond with its solubility (mole fraction).
Reply text: 0.00165

----------
settings: in n-propanol, 333.15 K
property label: solubility (mole fraction)
Give only the figure.

Inquiry: Given O=c1nc[nH]c2[nH]ncc12 , respond with its solubility (mole fraction).
Reply text: 0.000403

----------
settings: in 1,4-dioxane, 288.15 K
property label: solubility (mole fraction)
Give only the figure.

Inquiry: Given O=c1nc[nH]c2[nH]ncc12 , respond with its solubility (mole fraction).
Reply text: 3.71e-05

----------
settings: in water, 298.15 K
property label: solubility (mole fraction)

Inquiry: Given O=c1nc[nH]c2[nH]ncc12 , respond with its solubility (mole fraction).
Reply text: 2.94e-05

Entry source: BigSolDB 2.1
